Assay: Biodistribution in Daudi xenograft bearing mice
Assay type: in vivo, mouse
Details: female, CB-17 SCID, mouse, femur, iv, with AMD3100, 50 µg per animal, coinjected (CXCR4 competition), total radioactivity, 1h p.i., coinjection of 50 µg AMD3100/animal; n=1; read-out: Biodistribution femur, + AMD3100
Where a SMILES comes first, the peptide text is derived from it. Side-chain parts run from the residue outwards. [ ]: non-standard residue; d: D form. The star is where a group is joined. DOTA = O=C(O)CN1CCN(CC(=O)O)CCN(CC(=O)*)CCN(CC(=O)O)CC1; 2Nal = N[C@@H](Cc1ccc2ccccc2c1)C(=O)O; dNMeOrn = CN[C@H](CCCN)C(=O)O; 4Abz = Nc1ccc(C(=O)O)cc1
Parameter: tissue uptake at 1 h (%ID/g)
Give bare numbers, in %ID/g.

Challenge: Request the reported tissue uptake at 1 h associated with C[C@@H](NC(=O)[C@@H](CCCNC(=N)N)NC(=O)CN1CCN(CC(=O)O)CCN(CC(=O)O)CCN(CC(=O)O)CC1)C(=O)Nc1ccc(C(=O)NCCC[C@@H]2C(=O)N[C@@H](CCCNC(=N)N)C(=O)N[C@@H](Cc3ccc4ccccc4c3)C(=O)NCC(=O)N[C@H](Cc3ccc(O)cc3)C(=O)N2C)cc1 [[^177Lu]DOTA-r-a-ABA-CPCR4, metal not drawn] (cyclo([2Nal]G[dY][dNMeOrn]([4Abz-dA-dR-DOTA])R))
Response given: 0.74

---

For each of the molecules below, state its tissue uptake at 48 h.
Test: Biodistribution in Daudi xenograft bearing mice
Assay type: in vivo, mouse
Conditions: female, CB-17 SCID, mouse, kidney, iv, total radioactivity, 48h p.i., i.v.; means ± SD, n=4-5; read-out: Biodistribution kidney
Where a SMILES comes first, the peptide text is derived from it. Side-chain parts run from the residue outwards. [ ]: non-standard residue; d: D form. The star is where a group is joined. DOTA = O=C(O)CN1CCN(CC(=O)O)CCN(CC(=O)*)CCN(CC(=O)O)CC1; dTyr(3-I) = N[C@H](Cc1ccc(O)c(I)c1)C(=O)O; 2Nal = N[C@@H](Cc1ccc2ccccc2c1)C(=O)O; dNMeOrn = CN[C@H](CCCN)C(=O)O; 4Abz = Nc1ccc(C(=O)O)cc1

Challenge: For C[C@@H](NC(=O)[C@@H](CCCNC(=N)N)NC(=O)CN1CCN(CC(=O)O)CCN(CC(=O)O)CCN(CC(=O)O)CC1)C(=O)Nc1ccc(C(=O)NCCC[C@@H]2C(=O)N[C@@H](CCCNC(=N)N)C(=O)N[C@@H](Cc3ccc4ccccc4c3)C(=O)NCC(=O)N[C@H](Cc3ccc(O)c(I)c3)C(=O)N2C)cc1 [[^177Lu]DOTA-r-a-ABA-iodoCPCR4, metal not drawn] (cyclo([2Nal]G[dTyr(3-I)][dNMeOrn]([4Abz-dA-dR-DOTA])R)) , what is its reported tissue uptake at 48 h?
Response given: 2.58 %ID/g

Let us move to another entry and its tissue uptake at 48 h.
Challenge: Tell me the measured tissue uptake at 48 h of C[C@@H](NC(=O)[C@@H](CCCNC(=N)N)NC(=O)CN1CCN(CC(=O)O)CCN(CC(=O)O)CCN(CC(=O)O)CC1)C(=O)Nc1ccc(C(=O)NCCC[C@@H]2C(=O)N[C@@H](CCCNC(=N)N)C(=O)N[C@@H](Cc3ccc4ccccc4c3)C(=O)NCC(=O)N[C@H](Cc3ccc(O)cc3)C(=O)N2C)cc1 [[^177Lu]DOTA-r-a-ABA-CPCR4, metal not drawn] (cyclo([2Nal]G[dY][dNMeOrn]([4Abz-dA-dR-DOTA])R)) , please.
Response given: 3.05 %ID/g
